For each of the binders below, state its peptide exchange yield.
# Study system: T1, HLA-A*02:01 (human)
# T1 construct: MHC class I monomer of the UV-ligand exchange assay; also called peptide-receptive MHC molecules; MHC class I
# Procedure summary: UV peptide-exchange ELISA

[
  {
    "Binder": "FLYIRQLAI",
    "Data value": "50 to 75%"
  }
]

Batch request: peptide exchange yield for each of the following binders.
1. TLTDEQFLV
2. AASPIITLV
3. FLPELPADLEA

-- reply
["20 to 50%", "50 to 75%", "50 to 75%"]
